- tested target: Nuclear receptor coactivator 3 (Homo sapiens) (UniProt Q9Y6Q9)
- Sequence (Q9Y6Q9 whole entry, looked up): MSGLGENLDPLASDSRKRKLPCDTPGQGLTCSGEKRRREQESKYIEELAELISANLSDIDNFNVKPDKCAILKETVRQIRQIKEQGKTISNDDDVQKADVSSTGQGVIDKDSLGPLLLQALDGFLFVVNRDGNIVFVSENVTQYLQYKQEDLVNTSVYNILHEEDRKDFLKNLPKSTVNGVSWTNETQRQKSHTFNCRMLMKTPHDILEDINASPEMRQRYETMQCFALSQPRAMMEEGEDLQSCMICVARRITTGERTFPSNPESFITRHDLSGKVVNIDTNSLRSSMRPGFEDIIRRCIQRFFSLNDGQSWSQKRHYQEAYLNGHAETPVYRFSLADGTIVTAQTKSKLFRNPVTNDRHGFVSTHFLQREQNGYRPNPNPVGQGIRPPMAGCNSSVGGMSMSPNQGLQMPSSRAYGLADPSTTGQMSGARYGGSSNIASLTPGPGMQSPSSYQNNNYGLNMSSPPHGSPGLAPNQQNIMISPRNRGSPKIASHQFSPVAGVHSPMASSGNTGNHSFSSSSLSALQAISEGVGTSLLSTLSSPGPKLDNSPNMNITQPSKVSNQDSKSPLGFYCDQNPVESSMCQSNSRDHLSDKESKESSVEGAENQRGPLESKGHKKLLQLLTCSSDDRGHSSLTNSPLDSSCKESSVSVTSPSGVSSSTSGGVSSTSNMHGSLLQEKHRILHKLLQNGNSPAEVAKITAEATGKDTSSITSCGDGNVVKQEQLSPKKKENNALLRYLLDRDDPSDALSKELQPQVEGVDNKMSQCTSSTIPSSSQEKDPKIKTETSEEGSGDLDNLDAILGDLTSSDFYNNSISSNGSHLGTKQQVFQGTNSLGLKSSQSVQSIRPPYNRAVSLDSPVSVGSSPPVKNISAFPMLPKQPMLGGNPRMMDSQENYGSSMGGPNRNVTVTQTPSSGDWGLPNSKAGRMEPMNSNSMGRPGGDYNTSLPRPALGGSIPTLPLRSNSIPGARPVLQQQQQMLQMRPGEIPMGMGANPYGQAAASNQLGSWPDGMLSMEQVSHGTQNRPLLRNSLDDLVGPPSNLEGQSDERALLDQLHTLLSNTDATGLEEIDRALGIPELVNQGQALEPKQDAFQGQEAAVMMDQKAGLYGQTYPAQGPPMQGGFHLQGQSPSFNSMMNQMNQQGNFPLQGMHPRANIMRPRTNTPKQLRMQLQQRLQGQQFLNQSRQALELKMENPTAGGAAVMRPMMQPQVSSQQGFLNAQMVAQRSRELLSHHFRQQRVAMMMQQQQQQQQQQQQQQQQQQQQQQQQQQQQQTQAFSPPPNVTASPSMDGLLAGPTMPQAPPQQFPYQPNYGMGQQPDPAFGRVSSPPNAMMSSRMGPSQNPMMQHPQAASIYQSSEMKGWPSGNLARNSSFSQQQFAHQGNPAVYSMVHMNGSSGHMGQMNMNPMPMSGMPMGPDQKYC
- method summary: SRC3 coactivator transcriptional activity inhibitors, confirmation, cell-based, luminescence, quadruplicate (AID 588792);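 note: 0% = DMSO treated cells and 100% = gossypol at 36 µM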
- run conditions: HEK293 GAL4-SRC3 luciferase reporter, at 3.6 µM
Activity calls are given as the source filed them.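 Rule for the calls: active = mean inhibition over 43.08%, the solvent-only control mean plus 3 SD; inactive = the rest.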
Reply using exactly one outcome from 1 for active, 0 for inactive

CN(Cc1ccccc1)C1=CC(=[N+]2CCCC2)CC(C)(C)C1 | 1
NC(=S)NN=Cc1nccc2c(C(F)(F)F)cccc12 | 1
COC(=O)COc1cccc(NC(=O)c2cccs2)c1 | 0
CCOc1ccc(-n2c(-c3ccc(OC)cc3)c[n+]3c2CCCCC3)cc1 | 1
COc1ccc2[nH]c3c(C)c4ccncc4c(C)c3c2c1 | 0

Request: What was the test verdict on Cc1cccc(OCC(=O)NCC(=O)N/N=C/c2ccc(O)cc2O)c1 ?
Result: 0

Request: Quick one: O=C(Nc1cccc(S(=O)(=O)N2CCCCC2)c1)c1ccc(S(=O)(=O)C(F)F)cc1
Result: 0

Request: Try this molecule too: O=C(CCl)N1N=C(c2ccco2)CC1c1ccco1 (stereo not drawn)
Result: 1

====

- method summary: STAT3 reporter inhibitors, retest of hits, confirmation, U3A cells, luciferase, luminescence (AID 1265);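 note: 0% = IL-6 plus DMSO and 100% = IL-6 plus nifuroxazide control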
- run conditions: IL-6 STAT3 luciferase reporter, at 5.7 µM, stronger effect = higher value, cell line lacks STAT1
The other results are listed elsewhere or left out.
Entries annotated with measured inhibition
// return numeric value only (unit: %, not printed)

Consider the reported inhibition for these molecules:
Cc1cc(NC(=O)c2cc(-c3cccs3)on2)nn1Cc1ccc(Cl)cc1 | 46.6
O=C(Nc1ccc(CSc2ccccc2)cc1)c1ccc(CN2CCOCC2)cc1 | 83.7
COc1ccc(C2=Nc3cc(C)ccc3OC2)cc1 | 19.3
O=C(Nc1ccc(NC(=O)c2cccs2)cn1)c1ccco1 | 20.3

Request: I am curious: what inhibition value has been reported for CCCCCCCCn1c2c(c(=N)c3c1CCC3)CCCC2 ?
Result: 86.6

Request: Can you handle CCCOC(=O)c1[nH]c2c(c1C)C(=O)CC(c1cc(OC)c(OC)c(OC)c1)C2 (stereo not given) next?
Result: 61

====

- tested target: Steroidogenic factor 1 (Homo sapiens) (UniProt Q13285)
- Sequence (Q13285 whole entry, looked up): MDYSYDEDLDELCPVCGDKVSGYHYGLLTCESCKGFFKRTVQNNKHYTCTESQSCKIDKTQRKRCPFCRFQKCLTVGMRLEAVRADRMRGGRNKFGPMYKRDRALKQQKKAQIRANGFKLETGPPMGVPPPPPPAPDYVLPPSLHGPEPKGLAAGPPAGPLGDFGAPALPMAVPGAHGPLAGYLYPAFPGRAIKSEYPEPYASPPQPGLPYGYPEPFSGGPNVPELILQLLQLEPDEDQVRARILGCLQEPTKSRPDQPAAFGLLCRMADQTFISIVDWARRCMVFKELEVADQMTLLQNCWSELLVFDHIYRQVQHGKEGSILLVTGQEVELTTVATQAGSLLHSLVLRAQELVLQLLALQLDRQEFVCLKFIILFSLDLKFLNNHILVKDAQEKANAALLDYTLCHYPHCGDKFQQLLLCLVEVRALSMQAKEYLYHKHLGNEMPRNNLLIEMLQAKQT
- method summary: SF1 (NR5A1) inverse agonists, counter-screen for LRH-1 inverse agonist project, cell-based, luminescence, high throughput (AID 651614);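 note: cells cotransfected with StAR promoter reporter and SF1 expression vector; 0% = vehicle on cells with receptor and 100% = vehicle on cells lacking receptor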
- run conditions: cell-based SF1 luciferase reporter, at 3.6 µM
Active and inactive are the calls of the source. Rule as the data show it: active = inhibition above about 44%; inactive = the rest.
Pick one: active, inactive

Past entries and their recorded results:
COc1ccc(NC(=O)CSc2nc(N)c(-c3ccccc3)c(=O)[nH]2)cc1 | active
CCN(CC(=O)Nc1ccc(NC(C)=O)cc1)C(=O)C1(c2ccc(Cl)cc2)CCC1 | inactive

Request: Kindly provide the recorded test outcome for the following compound: Cc1ccccc1C(=O)N/N=C/c1ccc([N+](=O)[O-])s1
Result: active

Request: Now this one: CCN(CC)S(=O)(=O)c1cc(NC(=O)CNc2cccc(S(=O)(=O)N3CCCC3)c2)ccc1C
Result: active

Request: // next record CCOc1ccc(S(=O)(=O)NCc2ccncc2)cc1
Result: active

Request: Another: O=c1c2ccccc2nc(N/N=C/c2c(O)ccc3ccccc23)n1O
Result: active

Request: Continue with Cn1nccc1C(=O)NC1CCCc2c1cnn2-c1ccc(F)cc1F (stereo not drawn)
Result: active

Request: // same read-out, input: COc1ccc(-c2noc(CCCC(=O)NC3CCCC3)n2)cc1
Result: active

Request: Entry to check: COc1cc(-c2nc(C(=O)NCC3CCCO3)cc3c2[nH]c2ccccc23)cc(OC)c1OC (stereo not drawn)
Result: inactive

Request: Please answer likewise for CCN(CC)CCn1nc2c3c(cccc3c1=O)-c1ccccc1-2
Result: active

Request: Also need CCc1cc(-c2nnn(CCC3COCCO3)c2CC)ccc1-c1cn(Cc2ccc3ccccc3c2)nn1 (stereo not drawn) , thanks.
Result: inactive

Request: Can you check CCn1c(=NC(=O)CCS(=O)(=O)c2ccccc2)sc2cccc(OC)c21 next?
Result: active

Request: Field entry: Clc1ccc2c(c1)-c1ccccc1C1=NCCN12
Result: active

Request: What do you have for c1ccc(C2=Nn3c(nnc3-c3n[nH]c4c3CCC4)SC2)cc1 ?
Result: inactive

====

- method summary: StAR promoter reporter inhibitors, counter-screen for LRH-1 inverse agonist project, cell-based, luminescence, high throughput (AID 651611)
- run conditions: StAR promoter luciferase reporter counterscreen, at 3.6 µM, stronger effect = higher value
quantity: inhibition (%)
A number alone suffices; assume %.

Examples from the recorded data:
COc1ccc(OC)c(C2=NS(=O)(=O)N(C)C(C(=O)Nc3ccc(C(C)=O)cc3)=C2)c1 | 4.76
O=C(OCCC12CC3CC(CC(C3)C1)C2)c1ccc(NCc2cc(O)ccc2O)cc1 | 72.6
CCCOc1ccc(Cn2cnc3ccccc32)cc1 | 5.08

Could you now consider this next compound?
Request: Given the compound COc1ccc2cc3cc(C(=O)Nc4cc(OC)c(OC)c(OC)c4)oc3nc2c1 , what is its reported inhibition?
Result: 71

====

- method summary: StAR promoter reporter inhibitors, counter-screen for LRH-1 inverse agonist project, cell-based, luminescence, high throughput (AID 651611)
- run conditions: StAR promoter luciferase reporter counterscreen, at 3.6 µM
Active and inactive are the calls of the source. Rule as the data show it: active = inhibition above about 28%; inactive = the rest.
The categories you may choose from are 1.0 = active, 0.0 = inactive

O=C(c1cc(COc2cccc3cnccc23)on1)N1CCCC(CCCO)C1 (configuration not stated) | 1.0
O=Cc1ccc(N2CCCCCC2)cc1 | 0.0
CC1OC(CC(=O)O)CC2=C1C(=O)c1c(O)cccc1C2=O (configuration not stated) | 1.0
COc1ccc(C(=O)C2CCCN(Cc3cccn3-c3ccc(Cl)cn3)C2)c(OC)c1 (configuration not stated) | 0.0
COc1cc2c(=O)[nH]c3cc([N+](=O)[O-])ccc3c2cc1[N+](=O)[O-] | 0.0

Request: Entry Cc1ccc(CC(=O)Nc2ccncc2)cc1 : call = ?
Result: 0.0

Request: Try CC(C)c1ccc(NC(=O)CSc2nc(=O)[nH]c3c2CCCC3)cc1 next.
Result: 0.0

====

- tested target: Vasopressin V1a receptor (Homo sapiens) (UniProt P37288)
- Sequence (P37288 whole entry, looked up): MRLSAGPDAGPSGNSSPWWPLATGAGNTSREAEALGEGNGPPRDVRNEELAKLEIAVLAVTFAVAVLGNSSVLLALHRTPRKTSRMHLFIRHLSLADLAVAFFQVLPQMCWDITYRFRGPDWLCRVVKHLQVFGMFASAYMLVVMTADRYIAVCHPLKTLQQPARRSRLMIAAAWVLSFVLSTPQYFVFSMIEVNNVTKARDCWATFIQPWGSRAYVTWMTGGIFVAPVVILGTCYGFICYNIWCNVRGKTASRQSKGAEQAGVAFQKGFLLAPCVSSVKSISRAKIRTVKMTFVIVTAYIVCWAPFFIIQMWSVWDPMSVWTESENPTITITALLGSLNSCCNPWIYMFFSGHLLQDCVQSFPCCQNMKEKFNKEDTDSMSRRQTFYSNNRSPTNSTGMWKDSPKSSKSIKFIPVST
- method summary: V1a receptor agonists, calcium signal, counter-screen for OXTR agonist project, triplicate, fluorescence, CHO-V1R cells (AID 434991);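 note: peak over basal fluorescence ratio within a 100 second read; 0% = DMSO alone and 100% = 3 nM vasopressin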
- run conditions: Fluo-8 calcium fluorescence, at 3 µM
The other results are listed elsewhere or left out. Active and inactive are the calls of the source.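 Rule for the calls: active = mean activation over triplicate exceeds the hit threshold set in the earlier primary screen (cut at about 20% in these data); inactive = the rest.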
Tick one outcome: t = active, f = inactive

Examples from the recorded data:
CN(C)CCCN(C(=O)c1ccc(S(=O)(=O)N2CCCCCC2)cc1)c1nc2ccc(Br)cc2s1 | f
O=C(NNC(=S)NC(=O)c1cn(-c2ccccc2)nc1-c1ccccc1)c1ccncc1 | f
CCCc1ccc(OCC(=O)NNC(=S)NC(=O)c2ccco2)cc1 | f
NC(=O)C1=C[C@H](c2csc3ccccc23)C[C@H](OCc2ccc(CO)cc2)O1 | f

Request: Status in this test for COc1ccc(Cl)cc1NC(=O)NCC1CCN(Cc2ccccc2F)CC1 ?
Result: f

Request: Further, for COc1cccc(CNCCc2c[nH]c3ccccc23)c1OCc1ccccc1F ?
Result: f

Request: What do you get for O=C(NC(Nc1nc2ccc([N+](=O)[O-])cc2s1)(C(F)(F)F)C(F)(F)F)c1ccccc1 ?
Result: f

Request: Try COc1cc(/C=C2/SC(=S)N(Cc3ccccc3)C2=O)cc(OC)c1O next.
Result: t

Request: Now the same for CC1=CC2=NC(=O)/C(=C/c3coc4ccccc4c3=O)C(=N)N2O1
Result: t

====

- Tested on: transactivating tegument protein VP16 (Human herpesvirus 1), Gal4-VP16 luciferase reporter
- method summary: VP16 transactivation inhibitors, counter-screen for SRC3 inhibitor project, cell-based, luminescence, high throughput (AID 588794)
- run conditions: mammalian cells, VP16-driven luciferase reporter luminescence; at 3.6 µM
The source made the active and inactive calls. Cut-off read from the data, not from the text of the source: active = inhibition above about 30%; inactive = the rest.
Outcome (select one): 1 (active), 0 (inactive)

O=S(=O)(c1ccc(NC(=S)NCc2cccnc2)cc1)N1CCCCC1 | 1
c1cc(CNc2ccc3c(c2)OCCO3)ccn1 | 0
Cc1cc(C(F)(F)F)c(C#N)c(SCC(=O)Nc2nc3ccccc3s2)n1 | 1
CCCCC(=O)NC(c1ccc(C(C)C)cc1)c1ccc2cccnc2c1O (stereo unspecified) | 1
COc1cc(C=CC(=O)c2cc(OC)c(OC)c(OC)c2)cc(OC)c1OC | 1
O=C(CCl)N1N=C(c2ccco2)CC1c1cccs1 (stereo unspecified) | 1
O=C(N[C@@H](Cc1ccccc1)C(=O)CCl)OCc1ccccc1 | 1
C=CCSc1nsc(NC(=O)Nc2cccc(C(C)=O)c2)n1 | 1

Request: Which outcome was assigned to COC(=O)Cc1ccc(NC(=O)c2ccc(C(C)(C)C)cc2)cc1 in this test?
Result: 1

Request: // query: COc1ccc(-c2csc(NC(=O)C3CCN(c4ncnc5sc(C)c(C)c45)CC3)n2)cc1OC
Result: 1

Request: What do we get for CC(=O)c1ccc(Nc2ncnc3ccc(Br)cc23)cc1 ?
Result: 1
